Reference for the values: patent US8735322B2

test system: Amaranthus retroflexus (AMARE); experiment: Example B pre-emergence herbicidal activity, glasshouse pot test; format: in vivo; conditions: 312 h, rate 1000 g/ha, evaluated after 13 days, read-out: herbicidal damage AMARE (100=total damage to plant; 0=no damage to plant)
Give pest or weed control at 1000 g/ha for every item shown.

molecule="CCc1ccccc1C1=C(O)CC(CC2CCOCC2)CC1=O (centres unmarked)" result=0%
molecule="Cc1ccc(-c2ccc(Cl)cc2)cc1C1=C(O)CC(CC2O[C@H]3COC[C@H]3O2)CC1=O (some centres unmarked)" result=0%

For every record below, what is its pest or weed control at 1000 g/ha?
1. Cc1ccc(-c2ccc(Cl)cc2)cc1C1=C(O)CC(CC2OCC3(CC3)CO2)CC1=O (centres unmarked)
2. Cc1ccc(-c2ccc(Cl)cc2)cc1C1=C(O)CC(CC2OCC(C)CO2)CC1=O (centres unmarked)
3. Cc1ccc(-c2ccc(Cl)cc2)cc1C1=C(O)CC(CC2OCC3(CCOCC3)O2)CC1=O (centres unmarked)
4. Cc1cc(-c2ccc(C(F)(F)F)cc2)cc(C)c1C1=C(O)CC(CC2CCOCC2)CC1=O (centres unmarked)
5. Cc1ccc(-c2ccc3c(c2)OCO3)cc1C1=C(O)CC(CC2CCOCC2)CC1=O (centres unmarked)
6. Cc1ccc(-c2ccc(Cl)cc2)cc1C1=C(O)CC(CC2OCCCO2)CC1=O (centres unmarked)
7. Cc1ccc(-c2cccnc2OCC2CC2)cc1C1=C(O)CC(CC2CCOCC2)CC1=O (centres unmarked)

30%
0%
0%
0%
0%
0%
0%

For every record below, what is its pest or weed control at 1000 g/ha?
1. Cc1cc(-c2ccc(Cl)cc2)cc(C)c1C1=C(O)CC(CC2CCOCC2)CC1=O (centres unmarked)
2. Cc1ccc(-c2ccc(F)c(F)c2)cc1C1=C(O)CC(CC2CCOCC2)CC1=O (centres unmarked)

["20%", "0%"]

###

tested on: Amaranthus retroflexus (AMARE); assay: Example B pre-emergence herbicidal activity, glasshouse pot test; type: in vivo; conditions: 312 h, rate 1000 g/ha, evaluated after 13 days, read-out: herbicidal damage AMARE (100=total damage to plant; 0=no damage to plant)
Give pest or weed control at 1000 g/ha for every item shown.
Give bare numbers, in %.

Here are 3 compounds together with their reported answers.
compound="CCC1(CC)COC(CC2CC(=O)C(c3cc(-c4ccc(Cl)cc4)ccc3C)=C(O)C2)OC1 (stereo not shown)" measured_target="Amaranthus retroflexus (AMARE)" numeric_readout=0
compound="Cc1cc(-c2ccccc2)cc(C)c1C1=C(O)CC(CC2CCOCC2)CC1=O (stereo not shown)" measured_target="Amaranthus retroflexus (AMARE)" numeric_readout=0
compound="Cc1ccc(-c2ccc3c(c2)OCCO3)cc1C1=C(O)CC(CC2CCOCC2)CC1=O (stereo not shown)" measured_target="Amaranthus retroflexus (AMARE)" numeric_readout=0

Lookup result for Cc1ccc(-c2ccc(Cl)cc2)cc1C1=C(O)CC(CC2OCCO2)CC1=O (stereo not shown) ; measured pest or weed control at 1000 g/ha: 0

###

Give pest or weed control at 1000 g/ha for every item shown.
tested on: Solanum nigrum (SOLNI); experiment: Example B pre-emergence herbicidal activity, glasshouse pot test; type: in vivo; conditions: 312 h, rate 1000 g/ha, evaluated after 13 days, read-out: herbicidal damage SOLNI (100=total damage to plant; 0=no damage to plant)
One number for each entry, in %.

For every record below, what is its pest or weed control at 1000 g/ha?
1. Cc1ccc(-c2ccc(OC(F)(F)F)cc2)cc1C1=C(O)CC(CC2CCOCC2)CC1=O (stereo not drawn)
2. CCc1cc(-c2ccc(C)cc2)cc(CC)c1C1=C(O)CC(CC2CCOCC2)CC1=O (stereo not drawn)
3. Cc1ccc(-c2ccc(F)c(F)c2)cc1C1=C(O)CC(CC2CCOCC2)CC1=O (stereo not drawn)
4. Cc1ccc(-c2ccc3c(c2)OCCO3)cc1C1=C(O)CC(CC2CCOCC2)CC1=O (stereo not drawn)
5. Cc1ccc(-c2ccc(Cl)cc2)cc1C1=C(O)CC(CC2OCC3(CC3)CO2)CC1=O (stereo not drawn)
6. Cc1ccc(-c2ccc(Cl)cc2)cc1C1=C(O)CC(CC2OCCO2)CC1=O (stereo not drawn)
7. Cc1cc(-c2ccc(Cl)cc2)cc(C)c1C1=C(O)CC(CC2CCOCC2)CC1=O (stereo not drawn)

[30, 0, 0, 0, 20, 0, 20]

For every record below, what is its pest or weed control at 1000 g/ha?
1. Cc1ccc(-c2ccc(Cl)cc2)cc1C1=C(O)CC(CC2OCC(C)(C)CO2)CC1=O (stereo not drawn)
2. Cc1ccc(-c2cccnc2OCC2CC2)cc1C1=C(O)CC(CC2CCOCC2)CC1=O (stereo not drawn)

0
0

###

system: Avena fatua (AVEFA); assay: Example A pre-emergence herbicidal activity, glasshouse pot test; format: in vivo; settings: 480 h, rate 500 g/ha, evaluated 20 days later, 100=total damage to plant, 0=no damage to plant
Values of pest or weed control at 500 g/ha strictly less than 60% map to TRUE, and values of at least 60% map to FALSE.

Examples from the recorded data:
compound="CCc1ccc(-c2ccc(Cl)cc2)cc1C1=C(O)CC(C(C)C2CCOCC2)CC1=O (stereo not drawn)" label_class=TRUE
compound="CCc1cc(C)cc(CC)c1C1=C(O)CC(CC2CCOC2)CC1=O (stereo not drawn)" label_class=FALSE
compound="CCc1cc(C)cc(CC)c1C1=C(O)CC(CC2OCCCO2)CC1=O (stereo not drawn)" label_class=FALSE
compound="CCc1ccccc1C1=C(O)CC(CC2CCOCC2)CC1=O (stereo not drawn)" label_class=TRUE
compound="CCc1cc(C)cc(CC)c1C1=C(O)CC(CC2CCSCC2)CC1=O (stereo not drawn)" label_class=FALSE

From here, focus on the item given below.
In the record for CCc1cc(C)cc(CC)c1C1=C(O)CC(CC2OCC(C)(C)CO2)CC1=O (stereo not drawn) , is pest or weed control at 500 g/ha less than 60%? TRUE

###

Give pest or weed control at 1000 g/ha for every item shown.
system: Alopecurus myosuroides (ALOMY); assay: Example B pre-emergence herbicidal activity, glasshouse pot test; assay type: in vivo; conditions: 312 h, rate 1000 g/ha, evaluated after 13 days, read-out: herbicidal damage ALOMY (100=total damage to plant; 0=no damage to plant)
Answers are plain numbers, in %.

molecule="Cc1cc(-c2ccccc2)cc(C)c1C1=C(O)CC(CC2CCOCC2)CC1=O (centres unmarked)" measured_target="Alopecurus myosuroides (ALOMY)" endpoint="pest or weed control at 1000 g/ha" numeric_readout=90
molecule="CCc1ccccc1C1=C(O)CC(CC2CCOCC2)CC1=O (centres unmarked)" measured_target="Alopecurus myosuroides (ALOMY)" endpoint="pest or weed control at 1000 g/ha" numeric_readout=100
molecule="COCC1COC(CC2CC(=O)C(c3cc(-c4ccc(Cl)cc4)ccc3C)=C(O)C2)O1 (centres unmarked)" measured_target="Alopecurus myosuroides (ALOMY)" endpoint="pest or weed control at 1000 g/ha" numeric_readout=0
molecule="Cc1ccc(-c2ccc(Cl)cc2)cc1C1=C(O)CC(CC2OCC(C3CCOCC3)O2)CC1=O (centres unmarked)" measured_target="Alopecurus myosuroides (ALOMY)" endpoint="pest or weed control at 1000 g/ha" numeric_readout=20

Next up:
Lookup result for Cc1ccc(-c2ccc(Cl)cc2)cc1C1=C(O)CC(CC2OCCCCO2)CC1=O (centres unmarked) ; measured pest or weed control at 1000 g/ha: 20

###

Tested on: Avena fatua (AVEFA)
Assay: Example B pre-emergence herbicidal activity, glasshouse pot test
Type: in vivo
Settings: 312 h, rate 1000 g/ha, evaluated after 13 days, read-out: herbicidal damage AVEFA (100=total damage to plant; 0=no damage to plant)
Protocol: Seeds of a variety of test species were sown in standard soil in pots. […] After 13 days for pre and post-emergence, the test was evaluated (100=total damage to plant; 0=no damage to plant). […]
Give pest or weed control at 1000 g/ha for every item shown.
Answers are plain numbers, in %.

Here are 2 molecules together with their reported answers.
molecule="Cc1ccc(-c2ccc(OC(F)(F)F)cc2)cc1C1=C(O)CC(CC2CCOCC2)CC1=O (stereo not shown)" unit_text=% numeric_readout=0
molecule="Cc1ccc(-c2ccc(F)c(F)c2)cc1C1=C(O)CC(CC2CCOCC2)CC1=O (stereo not shown)" unit_text=% numeric_readout=0

For every record below, what is its pest or weed control at 1000 g/ha?
1. Cc1cc(-c2ccccc2)cc(C)c1C1=C(O)CC(CC2CCOCC2)CC1=O (stereo not shown)
2. Cc1ccc(-c2ccc(Cl)cc2)cc1C1=C(O)CC(CC2OCC(CC3CCOCC3)O2)CC1=O (stereo not shown)
3. COCC1COC(CC2CC(=O)C(c3cc(-c4ccc(Cl)cc4)ccc3C)=C(O)C2)O1 (stereo not shown)
4. CCc1cc(-c2ccc(C)cc2)cc(CC)c1C1=C(O)CC(CC2CCOCC2)CC1=O (stereo not shown)
5. Cc1ccc(-c2ccc(Cl)cc2)cc1C1=C(O)CC(CC2OCC(C3CCOCC3)O2)CC1=O (stereo not shown)
6. Cc1ccc(-c2ccc(Cl)cc2)cc1C1=C(O)CC(CC2O[C@H]3COC[C@H]3O2)CC1=O (stereo partly shown)
7. Cc1ccc(-c2ccc(F)cc2)cc1C1=C(O)CC(CC2CCOCC2)CC1=O (stereo not shown)

1. 80
2. 0
3. 0
4. 60
5. 0
6. 0
7. 0

For every record below, what is its pest or weed control at 1000 g/ha?
1. Cc1ccc(-c2ccc(Cl)cc2)cc1C1=C(O)CC(CC2OCC3(CC3)CO2)CC1=O (stereo not shown)
2. Cc1ccc(-c2cccnc2OCC2CC2)cc1C1=C(O)CC(CC2CCOCC2)CC1=O (stereo not shown)
3. Cc1cc(-c2ccc(Cl)cc2)cc(C)c1C1=C(O)CC(CC2CCOCC2)CC1=O (stereo not shown)
4. CCc1ccc(-c2ccc(Cl)cc2)cc1C1=C(O)CC(CC2OCCO2)CC1=O (stereo not shown)
5. Cc1ccc(-c2cc(C)c(C3=C(O)CC(CC4CCOCC4)CC3=O)c(C)c2)cc1 (stereo not shown)
6. CCc1cc(-c2ccc(Cl)cc2)cc(CC)c1C1=C(O)CC(CC2CCOCC2)CC1=O (stereo not shown)
7. Cc1ccc(-c2ccc3c(c2)OCO3)cc1C1=C(O)CC(CC2CCOCC2)CC1=O (stereo not shown)

[0, 0, 90, 70, 40, 60, 0]

For every record below, what is its pest or weed control at 1000 g/ha?
1. CCC1(CC)COC(CC2CC(=O)C(c3cc(-c4ccc(Cl)cc4)ccc3C)=C(O)C2)OC1 (stereo not shown)
2. Cc1ccc(-c2ccc(Cl)cc2)cc1C1=C(O)CC(CC2OCC3(CCOCC3)O2)CC1=O (stereo not shown)
3. Cc1ccc(-c2ccc(Cl)cc2)cc1C1=C(O)CC(CC2OCC(C)CO2)CC1=O (stereo not shown)

0
0
0
